- EXPERIMENT_SUMMARY: Pharmacokinetic study in mice
- Assay type: in vivo, nude mice (nu/nu)
- CONDITIONS: female, nude (nu/nu), mouse; Muscle; Nu/nu; IP 35 mg/kg; read-out: Tmax
MEASUREMENT_LABEL: Tmax (min)

> print(dat)
                                        mol  measurement.label  experimental.value
1  COc1ccc(S(=O)(=O)N(Cc2ccc3c(c2)C=CC(C)(C)O3)c2ccccc2)cc1OC               Tmax                  15

---

- EXPERIMENT_SUMMARY: Pharmacokinetic study in mice
- Type: in vivo, CD-1 mice
- CONDITIONS: female, mouse; Muscle; CD-1; IV 35 mg/kg
MEASUREMENT_LABEL: half-life (h)

> print(dat)
                                   compound  measurement.label  experimental.value
1  COc1ccc(S(=O)(=O)N(Cc2ccc3c(c2)C=CC(C)(C)O3)c2ccccc2)cc1OC [KCN1]          half-life                1.52

---

- EXPERIMENT_SUMMARY: Pharmacokinetic study in mice
- Type: in vivo, nude mice (nu/nu)
- CONDITIONS: female, nude (nu/nu), mouse; Muscle; Nu/nu; IV 35 mg/kg
- Experimental: Female CD-1 and nude mice were administered 35 mg/kg body weight of KCN1 as either a single intravenous injection via a tail vein or via an intraperitoneal injection. […] The collection containers and cages were washed twice with 0.9% saline solution, and each urine collection and each wash was analyzed separately, then values were added together for each mouse to determine the total KCN1 present in urine during the collection period. […]
MEASUREMENT_LABEL: half-life

> print(dat)
                                        mol  experimental.value
1  COc1ccc(S(=O)(=O)N(Cc2ccc3c(c2)C=CC(C)(C)O3)c2ccccc2)cc1OC              2.28 h

---

- EXPERIMENT_SUMMARY: Pharmacokinetic study in mice
- Format: in vivo, CD-1 mice
- CONDITIONS: female, mouse; Liver; CD-1; IP 35 mg/kg
MEASUREMENT_LABEL: half-life (h)

> print(dat)
                                        mol  experimental.value
1  COc1ccc(S(=O)(=O)N(Cc2ccc3c(c2)C=CC(C)(C)O3)c2ccccc2)cc1OC                 3.5

---

- EXPERIMENT_SUMMARY: Pharmacokinetic study in mice
- Format: in vivo, CD-1 mice
- CONDITIONS: female, mouse; Spleen; CD-1; IV 35 mg/kg
MEASUREMENT_LABEL: half-life (min)

> print(dat)
                                        mol  units  experimental.value
1  COc1ccc(S(=O)(=O)N(Cc2ccc3c(c2)C=CC(C)(C)O3)c2ccccc2)cc1OC    min                27.6

---

- EXPERIMENT_SUMMARY: Pharmacokinetic study in mice
- Format: in vivo, CD-1 mice
- CONDITIONS: female, mouse; Kidneys; CD-1; IV 35 mg/kg
MEASUREMENT_LABEL: half-life (h)

> print(dat)
                                        mol  experimental.value
1  COc1ccc(S(=O)(=O)N(Cc2ccc3c(c2)C=CC(C)(C)O3)c2ccccc2)cc1OC                18.8

---

- EXPERIMENT_SUMMARY: Pharmacokinetic study in mice
- Format: in vivo, nude mice (nu/nu)
- CONDITIONS: female, nude (nu/nu), mouse; Muscle; Nu/nu; IV 35 mg/kg; read-out: Tmax
MEASUREMENT_LABEL: Tmax (min)

> print(dat)
                                   compound  units  experimental.value
1  COc1ccc(S(=O)(=O)N(Cc2ccc3c(c2)C=CC(C)(C)O3)c2ccccc2)cc1OC [KCN1]    min                 4.8

---

- EXPERIMENT_SUMMARY: Pharmacokinetic study in mice
- Assay type: in vivo, nude mice (nu/nu)
- CONDITIONS: female, nude (nu/nu), mouse, plasma, iv; nude mice, I.V. 35 mg/kg, 6 h after dosing
- Description: Female CD-1 and nude mice were administered 35 mg/kg body weight of KCN1 as either a single intravenous injection via a tail vein or via an intraperitoneal injection. […] The collection containers and cages were washed twice with 0.9% saline solution, and each urine collection and each wash was analyzed separately, then values were added together for each mouse to determine the total KCN1 present in urine during the collection period. […]
MEASUREMENT_LABEL: concentration at 6 h

> print(dat)
                                        mol  experimental.value
1  COc1ccc(S(=O)(=O)N(Cc2ccc3c(c2)C=CC(C)(C)O3)c2ccccc2)cc1OC         < 300 ng/mL

---

- EXPERIMENT_SUMMARY: Pharmacokinetic study in mice
- Assay type: in vivo, CD-1 mice
- CONDITIONS: female, mouse; Lungs; CD-1; IV 35 mg/kg; read-out: Tmax
- Procedure: Female CD-1 and nude mice were administered 35 mg/kg body weight of KCN1 as either a single intravenous injection via a tail vein or via an intraperitoneal injection. […] The collection containers and cages were washed twice with 0.9% saline solution, and each urine collection and each wash was analyzed separately, then values were added together for each mouse to determine the total KCN1 present in urine during the collection period. […]
MEASUREMENT_LABEL: Tmax

> print(dat)
                                   compound  measurement.label  experimental.value
1  COc1ccc(S(=O)(=O)N(Cc2ccc3c(c2)C=CC(C)(C)O3)c2ccccc2)cc1OC [KCN1]               Tmax                 2 h

---

- EXPERIMENT_SUMMARY: Pharmacokinetic study in mice
- Type: in vivo, nude mice (nu/nu)
- CONDITIONS: female, nude (nu/nu), mouse; Lungs; Nu/nu; IP 35 mg/kg; read-out: Tmax
MEASUREMENT_LABEL: Tmax (h)

> print(dat)
                                        mol  experimental.value
1  COc1ccc(S(=O)(=O)N(Cc2ccc3c(c2)C=CC(C)(C)O3)c2ccccc2)cc1OC                   1

---

- EXPERIMENT_SUMMARY: Pharmacokinetic study in mice
- Format: in vivo, nude mice (nu/nu)
- CONDITIONS: female, nude (nu/nu), mouse; Lungs; Nu/nu; IV 35 mg/kg; read-out: Tmax
- Experimental: Female CD-1 and nude mice were administered 35 mg/kg body weight of KCN1 as either a single intravenous injection via a tail vein or via an intraperitoneal injection. […] The collection containers and cages were washed twice with 0.9% saline solution, and each urine collection and each wash was analyzed separately, then values were added together for each mouse to determine the total KCN1 present in urine during the collection period. […]
MEASUREMENT_LABEL: Tmax (min)

> print(dat)
                                        mol  experimental.value
1  COc1ccc(S(=O)(=O)N(Cc2ccc3c(c2)C=CC(C)(C)O3)c2ccccc2)cc1OC                  15

---

- EXPERIMENT_SUMMARY: Pharmacokinetic study in mice
- Format: in vivo, nude mice (nu/nu)
- CONDITIONS: female, nude (nu/nu), mouse; Spleen; Nu/nu; IP 35 mg/kg; read-out: Tmax
MEASUREMENT_LABEL: Tmax (h)

> print(dat)
                                        mol  measurement.label  experimental.value
1  COc1ccc(S(=O)(=O)N(Cc2ccc3c(c2)C=CC(C)(C)O3)c2ccccc2)cc1OC               Tmax                  24

---

- EXPERIMENT_SUMMARY: Pharmacokinetic study in mice
- Format: in vivo, CD-1 mice
- CONDITIONS: female, mouse; Kidneys; CD-1; IV 35 mg/kg; read-out: Tmax
MEASUREMENT_LABEL: Tmax (min)

> print(dat)
                                        mol  experimental.value
1  COc1ccc(S(=O)(=O)N(Cc2ccc3c(c2)C=CC(C)(C)O3)c2ccccc2)cc1OC                 4.8

---

- EXPERIMENT_SUMMARY: Pharmacokinetic study in mice
- Type: in vivo, CD-1 mice
- CONDITIONS: female, mouse; Heart; CD-1; IV 35 mg/kg
MEASUREMENT_LABEL: half-life (h)

> print(dat)
                                   molecule  units  experimental.value
1  COc1ccc(S(=O)(=O)N(Cc2ccc3c(c2)C=CC(C)(C)O3)c2ccccc2)cc1OC [KCN1]      h                22.1
